Each recorded value in this set is attributed to patent US9206432B2.

Tested on: lacZ under control of the tetA promoter (PtetA) in E. coli KM3
Type: cell-based
Details: Table 6, reverse repressor hits; sulfometuron, same plate assay format (20 ppm)
recordedMetric: relative β-galactosidase activity, inducer Sm

* L1-25: library L1 hit with reverse repressor activity (SEQ ID NO: 1206-1213) (protein, rSuR L1-25) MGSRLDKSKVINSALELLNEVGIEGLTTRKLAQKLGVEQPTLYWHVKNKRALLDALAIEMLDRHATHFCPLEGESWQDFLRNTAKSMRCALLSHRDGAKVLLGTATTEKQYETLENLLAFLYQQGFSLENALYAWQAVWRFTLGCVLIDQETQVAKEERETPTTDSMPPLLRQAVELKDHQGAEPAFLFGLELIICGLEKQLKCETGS | 0.63
